Assign inhibition of growth at 50 µM to each entry below.
# Tested on: DU-145
# Method notes: Anticancer activity against human DU145 cells assessed as growth inhibition at 50 uM after 48 hrs by SRB assay
# Format: functional
# Cond: DU-145, 48 h, read-out: GI
One number for each entry, in %.

Sample records with inhibition of growth at 50 µM:
# Chemical smiles, Target under test, Result value
records = [
    ("CC(=O)O[C@H]1CC[C@@]2(C)[C@@H](CC[C@]3(C)[C@@H]2CC=C2[C@@H]4[C@@H](C)[C@H](C)CC[C@]4(C)CC[C@]23C)[C@@]1(C)C(=O)O", "DU-145", 87),
    ("CC(=O)O[C@@H]1CC[C@@]2(C)[C@@H](CC[C@]3(C)[C@@H]2C(=O)C=C2[C@@H]4[C@@H](C)[C@H](C)CC[C@]4(C)CC[C@]23C)[C@@]1(C)C(=O)O", "DU-145", 85),
]

Please turn your attention to the following entry.
// query Requested read-out: inhibition of growth at 50 µM. Entry: C[C@H]1[C@H](C)CC[C@]2(C)CC[C@]3(C)C(=CC(=O)[C@@H]4[C@@]5(C)CC[C@@H](OC(=O)CCC(=O)O)[C@](C)(C(=O)O)[C@@H]5CC[C@]43C)[C@H]12
// result 51

FYI, the data here is from ChEMBL document CHEMBL1932969.
